B1: INTS4 (parent)
chain: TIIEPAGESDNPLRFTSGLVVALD

Variants of: B1
protocolSummary: protein stability index of a GFP-peptide fusion (GPS, HEK-293T) (PSI 1-6); higher = more stable;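 also: lentivirally expressed fusions sorted by FACS into six bins by GFP to DsRed ratio, PSI derived from sequencing read proportions per bin multiplied by bin number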
testParameters: c terminus: a fixed tail appended
Assign 1 whenever protein stability index does not fall below 4; assign 0 whenever it does.

| var | labelClass |
| --- | --- |
| R14Y | 0 |
| E4D | 0 |
| L19T | 1 |
| I2D | 1 |
| A22L | 0 |
| L13V | 0 |
| G18C | 0 |
| L23P | 1 |
| G18R | 0 |
| L23D | 1 |
| E4Y | 0 |
